Reported Survival values are given for each entry in this list.
# Test system: Avena sterilis
# run description: Herbicidal activity against Avena sterilis accession P16 assessed as weed survival at 1 times field recommended herbicide dose
# Assay type: functional
Form entry: value (%) — number only.

Example entries begin here.
- CCOC(=O)[C@@H](C)Oc1ccc(Oc2nc3ccc(Cl)cc3o2)cc1: 93
- C#CCOC(=O)[C@@H](C)Oc1ccc(Oc2ncc(Cl)cc2F)cc1: 93
- COC(=O)C(C)Oc1ccc(Oc2ccc(Cl)cc2Cl)cc1 (stereo unspecified): 80
- CCc1cc(C)cc(CC)c1-c1c(OC(=O)C(C)(C)C)n2n(c1=O)CCOCC2: 0
- CCO/N=C(\CC)C1=C(O)CC(c2c(C)cc(C)cc2C)CC1=O (stereo unspecified): 77

Note: attention shifts to another entry.
Task item: Which Survival is listed for COCc1cnc(C2=NC(C)(C(C)C)C(=O)N2)c(C(=O)O)c1 (stereo unspecified) ?
Reply: 0
